Every entry's value here was drawn from the supplement of paper PMC12645437.

Target: T1, CRBN, Q96SW2;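 also: pooled lentiviral library of zinc finger degron-EGFP fusions in mCherry-positive Jurkat cells, FACS-sorted after compound exposure, with degron abundance counted by next-generation sequencing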
T1 chain: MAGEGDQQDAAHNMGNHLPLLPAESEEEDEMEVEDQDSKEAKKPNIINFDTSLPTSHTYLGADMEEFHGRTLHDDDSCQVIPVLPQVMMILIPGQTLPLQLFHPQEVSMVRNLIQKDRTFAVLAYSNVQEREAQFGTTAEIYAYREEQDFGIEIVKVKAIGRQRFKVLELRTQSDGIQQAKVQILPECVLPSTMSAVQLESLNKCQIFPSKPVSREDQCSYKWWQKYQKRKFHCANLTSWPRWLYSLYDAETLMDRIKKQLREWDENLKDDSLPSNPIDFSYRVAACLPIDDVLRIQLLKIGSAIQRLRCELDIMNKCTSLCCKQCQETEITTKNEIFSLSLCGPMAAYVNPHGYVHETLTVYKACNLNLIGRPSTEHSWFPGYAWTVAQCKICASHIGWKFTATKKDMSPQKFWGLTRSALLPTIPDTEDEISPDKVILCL
Assay: log2 fold change of degron read counts, EGFP-low vs EGFP+ sorted cells (limma voom), compound-induced degradation; higher = more compound-induced degradation of the degron-EGFP fusion; degrons are variants of IKZF1/3 zinc finger 2; compound dose not given here
Conditions: Jurkat; 18 h; compound: compound 19 (5-tert-butyl-thalidomide)
In all, about 8,300 sequences were measured (“log2 fold change of degron read counts, EGFP-low vs EGFP+ sorted cells (limma voom), compound-induced degradation”: median about -1.1, highest 2% from about 3.2 on). This is one part of a sample in which the highest values are shown more often than they occur.
Would you mind labelling by log2 fold change of degron read counts? At or over 3 is satisfied, under is not satisfied.

chainSequence: FGCEVCGAAFTQKGNLLRHIKL [46F_47G_49E_50V_52G_53A_54A_55F_67L_, Q9UKT9]
assignedCategory: not satisfied

Dear colleague, could you confirm whether FYCNQCGHAFTQKGNLLRHIKL [46F_47Y_49N_50Q_52G_53H_54A_55F_67L_, Q9UKT9] has log2 fold change of degron read counts at or above 3?
not satisfied

Does log2 fold change of degron read counts meet or surpass 3 for LWCPICGFFCTQKGNLLRHIKL [46L_47W_49P_50I_52G_53F_54F_55C_67L_, Q9UKT9] ?
not satisfied
